ASSAY_INFO: ATG_PPRE_CIS: Attagene CIS-FACTORIAL HepG2 Assay for human Peroxisome Proliferator-activated Response Element (PPRE) (AID 2282958)
EXPERIMENTAL_CONDITIONS: HepG2 PPRE cis-element reporter, Attagene transcription factor profiling; actives raise or lower the signal
Description: ATG_CIS is a cell-based, multiplexed-readout assay that uses HepG2, a human liver cell line, with measurements taken at 24 hours after chemical dosing in a 24-well plate.ATG_PPRE_CIS is one of 52 assay component(s) measured or calculated from the ATG_CIS assay. […] This assay endpoint, ATG_PPRE_CIS, was analyzed with bidirectional fitting relative to DMSO as the negative control and baseline of activity. […]
The source made the active and inactive calls. How the source made its calls: active means hit-call score of the fitted dose curve at least 0.9, where 1 is the maximum; inactive means score below 0.9.
Your response should consist of one outcome taken from YES for active, NO for inactive

Example entries and their recorded answers appear below.
COc1cc(OC)nc(Oc2cccc(Oc3nc(OC)cc(OC)n3)c2C(=O)O)n1
NO
CCc1cc(C)cc(CC)c1-c1c(OC(=O)C(C)(C)C)n2n(c1=O)CCOCC2
NO
Nc1ccc(Cl)c(Cl)c1
NO

Assay outcome for CCCCCCCCCCCCCCCC[N+](C)(C)C : what was it?
NO

Assay outcome for C=CC(=O)OC : what was it?
NO

Assay outcome for c1ccc(Nc2ccc3ccccc3c2)cc1 : what was it?
YES

====

ASSAY_INFO: CCTE_Shafer_MEA_dev_per_network_spike_spike_percent: CCTE's Neural Network Formation Assay for Percent of Spikes in a Network Spike, Shafer Lab (AID 2284054)
Activity calls are given as the source filed them. How the source made its calls: active means hit-call score of the fitted dose curve at least 0.9, where 1 is the maximum; inactive means score below 0.9.
Your response should consist of one outcome taken from TRUE for active, FALSE for inactive

Example entries and their recorded answers appear below.
C[C@H](N)Cc1ccccc1
FALSE
CN1C(=O)CN=C(c2ccccc2)c2cc(Cl)ccc21
TRUE
CCOP(=O)(Oc1cnc(C(C)(C)C)nc1)OC(C)C (configuration not stated)
FALSE
C=CCN1CC[C@]23c4c5ccc(O)c4O[C@H]2C(=O)CC[C@@]3(O)[C@H]1C5
FALSE
CC1(C)C(C=C(Cl)Cl)C1C(=O)O[C@H](C#N)c1cccc(Oc2ccccc2)c1 (some centres not stated)
TRUE

Assay outcome for CC(=O)[O-].[Tl+] : what was it?
FALSE

Assay outcome for CN[C@]1(c2ccccc2Cl)CCCCC1=O : what was it?
FALSE

====

ASSAY_INFO: CCTE_Shafer_MEA_dev_bursting_electrodes_number: CCTE's Neural Network Formation Assay for Number of Bursting Electrodes, Shafer Lab (AID 2284043)
Records with an inconclusive call do not appear. The source made the active and inactive calls. The calls were made as follows: active = hit-call score of the fitted dose curve at least 0.9, where 1 is the maximum; inconclusive = response in the unintended direction; inactive = score below 0.9.
Your response should consist of one outcome taken from active, inactive

Example entries and their recorded answers appear below.
O=[As]O
active
CC1(C)[C@H](C=C(Cl)Cl)[C@@H]1C(=O)O[C@@H](C#N)c1cccc(Oc2ccccc2)c1
active

Assay outcome for CCC[CH2][Sn]([CH2]CCC)([CH2]CCC)[O][Sn]([CH2]CCC)([CH2]CCC)[CH2]CCC : what was it?
active

Assay outcome for CC1CCCC1.[C-]#[O+].[C-]#[O+].[C-]#[O+].[Mn] : what was it?
inactive

Assay outcome for CC1(C)[C@H](C=C(Cl)Cl)[C@H]1C(=O)OCc1c(F)c(F)cc(F)c1F : what was it?
active

Assay outcome for CN[C@]1(c2ccccc2Cl)CCCCC1=O : what was it?
inactive

====

ASSAY_INFO: ATG_ISRE_CIS: Attagene CIS-FACTORIAL HepG2 Assay for human Interferon Regulatory Factor 1 (IRF1) binding to an Interferon-Stimulated Response Element (ISRE) (AID 2282948)
EXPERIMENTAL_CONDITIONS: HepG2 ISRE cis-reporter (Attagene), mRNA transcription readout; actives raise or lower the signal
Active and inactive are the calls of the source. The calls were made as follows: active = hit-call score of the fitted dose curve at least 0.9, where 1 is the maximum; inactive = score below 0.9.
Your response should consist of one outcome taken from active, inactive

Example entries and their recorded answers appear below.
CCC[N+](=O)[O-]
inactive
C#CC1(O)CCCCC1
inactive
CN(C)N
inactive
CCCCCCC1CCOC1=O (configuration not stated)
inactive
COc1ncc(F)c2nc(S(=O)(=O)Nc3c(F)cccc3F)nn12
inactive
CC=Cc1ccc2c(c1)OCO2
inactive

// next entry
Assay outcome for O=[N+]([O-])c1cc(C(F)(F)F)c(Cl)c([N+](=O)[O-])c1Cl : what was it?
active

====

ASSAY_INFO: ATG_DR4_LXR_CIS: Attagene CIS-FACTORIAL HepG2 Assay for human Liver X Receptor (LXR), DR4 submotif (AID 2282929)
EXPERIMENTAL_CONDITIONS: HepG2 Attagene DR4 cis-reporter, mRNA transcription; actives raise or lower the signal
The source made the active and inactive calls. Rule for the calls: active = hit-call score of the fitted dose curve at least 0.9, where 1 is the maximum; inactive = score below 0.9.
Your response should consist of one outcome taken from active, inactive

ClCCCCCCCl
inactive

Assay outcome for CCCCCCC1CCOC1=O (configuration not stated) : what was it?
inactive

Assay outcome for CC(O)CN(CC(C)O)CC(C)O (configuration not stated) : what was it?
inactive

Assay outcome for O=C(O)CCCc1ccc(N(CCCl)CCCl)cc1 : what was it?
active

Assay outcome for CC(=O)/C=C/c1ccccc1 : what was it?
active

Assay outcome for CC(C)(C)C(=O)CCl : what was it?
active

Assay outcome for C=CC(=O)OCCCCOC(=O)C=C : what was it?
active

Assay outcome for Nc1ccccc1 : what was it?
inactive

Assay outcome for CC(C)[C@@H](C(=O)O[C@@H](C#N)c1cccc(Oc2ccccc2)c1)c1ccc(Cl)cc1 : what was it?
active

Assay outcome for COc1cc(OC)c(OC)cc1C=O : what was it?
inactive

Assay outcome for CCOC(=O)NC(=S)Nc1ccccc1NC(=S)NC(=O)OCC : what was it?
inactive

Assay outcome for c1ccc(Nc2ccc3ccccc3c2)cc1 : what was it?
active

Assay outcome for N#CCNCC#N : what was it?
inactive

Assay outcome for CC1(C)C(=O)NC(=O)NC1=O : what was it?
inactive

Assay outcome for C[C@]12CC[C@H](O)C[C@H]1CC[C@@H]1[C@@H]2C[C@@H](O)[C@]2(C)[C@@H](C3=CC(=O)OC3)CC[C@]12O : what was it?
inactive

Assay outcome for O=C(CCl)c1ccccc1 : what was it?
active

Assay outcome for O=C1C(Cl)=C(Cl)C(=O)C(Cl)=C1Cl : what was it?
active

====

ASSAY_INFO: ATG_XTT_Cytotoxicity: Cytotoxicity Assessment in the Attagene TRANS-FACTORIAL HepG2 Assay (AID 2283584)
Inconclusive results are not listed. The source made the active and inactive calls. The calls were made as follows: active = hit-call score of the fitted dose curve at least 0.9, where 1 is the maximum; inconclusive = response in the unintended direction; inactive = score below 0.9.
Your response should consist of one outcome taken from active, inactive

Example entries and their recorded answers appear below.
C[C@]12CC[C@H](O)C[C@H]1CC[C@@H]1[C@@H]2C[C@@H](O)[C@]2(C)[C@@H](C3=CC(=O)OC3)CC[C@]12O
inactive
ClCCCCCCCl
inactive
O=S(=O)(O)OOS(=O)(=O)O
inactive
CC1(C)[C@H](C(=O)O[C@H](C#N)c2cccc(Oc3ccccc3)c2)[C@@H]1C=C(Br)Br
inactive
CC(C)COP(=O)(OCC(C)C)OCC(C)C
inactive
CCC(C)c1cc([N+](=O)[O-])cc([N+](=O)[O-])c1OC(=O)C=C(C)C (stereo unspecified)
inactive

Assay outcome for CCCCCc1cc(O)cc(O)c1 : what was it?
inactive

Assay outcome for O=P(O)(Oc1ccccc1)Oc1ccccc1 : what was it?
inactive

Assay outcome for NNc1ccccc1 : what was it?
inactive

Assay outcome for O=C1Nc2ccc(Cl)cc2C(c2ccccc2)=NC1O (stereo unspecified) : what was it?
inactive

Assay outcome for O=[N+]([O-])c1cc(C(F)(F)F)c(Cl)c([N+](=O)[O-])c1Cl : what was it?
active

Assay outcome for C#CC1(O)CCCCC1 : what was it?
inactive

Assay outcome for CSc1nc(N=[N+]=[N-])nc(NC(C)C)n1 : what was it?
inactive

Assay outcome for CCC[N+](=O)[O-] : what was it?
inactive

====

ASSAY_INFO: TOX21_p53_BLA_p2_viability: Viability Assessment in the Tox21 HCT-116 p53 Agonism Beta-lactamase Assay, Phase 2 (AID 2283591);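 further: compound exposure lasted 16 h at 37 °C; actives lower the ATP signal meaning cytotoxicity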
Records with an inconclusive call do not appear. Activity calls are given as the source filed them. How the source made its calls: active means hit-call score of the fitted dose curve at least 0.9, where 1 is the maximum; inconclusive means response in the unintended direction; inactive means score below 0.9.
OBSERVABLE: AC50

CCNC1(c2cccs2)CCCCC1=O (stereo not given)
inactive
C[C@H]1CC[C@]2(NC1)O[C@H]1C[C@H]3[C@@H]4CC[C@H]5C[C@@H](O[C@@H]6O[C@H](CO)[C@H](O[C@@H]7O[C@H](CO)[C@@H](O)[C@H](O[C@@H]8OC[C@@H](O)[C@H](O)[C@H]8O)[C@H]7O[C@@H]7O[C@H](CO)[C@@H](O)[C@H](O)[C@H]7O)[C@H](O)[C@H]6O)CC[C@]5(C)[C@H]4CC[C@]3(C)[C@H]1[C@@H]2C
4.84 µM (active)
CC(=O)OCC(=O)[C@H]1CC[C@H]2[C@@H]3CC[C@H]4C[C@H](O)CC[C@]4(C)[C@H]3C(=O)C[C@]12C
inactive
CCN1C[C@]2(COC)[C@H](O)C[C@H](OC)[C@@]34[C@@H]5C[C@@]6(O)[C@H](OC(=O)c7ccccc7)[C@@H]5[C@@](OC(C)=O)([C@@H]([C@H](OC)[C@H]23)[C@@H]14)[C@@H](O)[C@@H]6OC
inactive

AC50 reported for this compound C[C@@H](CO)NC(=O)[C@@H]1C=C2c3cccc4[nH]cc(c34)C[C@H]2N(C)C1 : inactive

AC50 reported for this compound C[C@@H]1CC[C@H]2[C@@H](C)C(=O)O[C@@H]3O[C@@]4(C)CC[C@@H]1[C@]32OO4 : inactive

AC50 reported for this compound CC(C)(C)C(=O)Cl : inactive

AC50 reported for this compound O=[N+]([O-])c1cccc(O)c1 : inactive

AC50 reported for this compound CSc1ccc(C(=O)C(C)(C)N2CCOCC2)cc1 : inactive
